I'd appreciate it if you could supply % UTC (Yap1 mRNA) values for the items below.
# Tested on: Yap1 mRNA
# PROCEDURE DETAILS: Dose-dependent inhibition of human Yap1 in SNU-449 cells (Example 9, RTS36584)
# Type: cell-based
# MEASUREMENT PARAMETERS: 125.0 nM, free uptake, approximately 48 hours
Strand notation (5' to 3'): a small letter for the sugar, then the base; units joined by * are phosphorothioate-linked, units joined directly phosphodiester-linked; [ ] holds rarer units or linkages, { } end groups; capitals alone tell only the bases. e = 2'-O-(2-methoxyethyl) (MOE); k = constrained ethyl (cEt); [5mC] = 5-methylcytosine; d = 2'-deoxy (DNA); m = 2'-O-methyl
Give the figure together with its unit, number first.

Ask | Quick check: % UTC (Yap1 mRNA) of 1197214 (kA*kG*kT*dG*dT*dA*dT*dG*dT*d[5mC]*dA*dG*dA*kA*kG*kA; antisense) [compound 1197214] ?
Reply | 31 % UTC

Ask | Now give it for 1198804 (kT*kG*dT*d[5mC]*dT*d[5mC]*dA*dT*dG*d[5mC]*d[5mC]*kT*eT*kA*eT*kA; antisense) [compound 1198804] too.
Reply | 48 % UTC

Ask | // next record 1198423 (TCTTATATGGTTTTGT; all C 5-methyl, all phosphorothioate, sugars by position not given here; cEt/MOE mixed gapmer, notation at position 4 garbled) [compound 1198423]
Reply | 35 % UTC

Ask | Do the same for 1198902 (kT*kT*dA*dG*dA*dG*dT*dA*dT*dG*dT*kG*dG*k[5mC]*dA*kA; antisense) [compound 1198902] please
Reply | 46 % UTC

Ask | Follow-up item: 1198613 (kA*kA*kA*dG*dT*dG*dT*dA*dT*dG*dT*d[5mC]*kA*kG*kA*eA; antisense) [compound 1198613]
Reply | 25 % UTC

Ask | Again, but for 1076453 (GTAATATTGCAATCTG; 3-10-3 cEt gapmer, further chemistry not given here) [compound 1076453]
Reply | 29 % UTC

Ask | Same read-out for 1197236 (kT*kA*kT*dT*mA*dG*dA*dG*dT*dA*dT*dG*dT*kG*kG*k[5mC]; antisense) [compound 1197236] ?
Reply | 46 % UTC

Ask | Proceed to 1198297 (kA*kT*kT*dA*dG*dA*dG*dT*dA*dT*dG*dT*kG*eG*k[5mC]*eA) [compound 1198297]
Reply | 42 % UTC

Ask | Input 1198382 (kT*dT*dA*dG*dA*dG*dT*dA*dT*dG*dT*kG*eG*k[5mC]*eA*kA; antisense) [compound 1198382]
Reply | 56 % UTC

Ask | What about this substance? 1197179 (kT*kG*kG*dA*dA*dA*dT*dT*dG*dT*d[5mC]*dT*d[5mC]*kA*kT*kG; antisense) [compound 1197179]
Reply | 38 % UTC

Ask | Follow-up item: 1197193 (AGGATGCATGGTTTTT; chemistry not fully specified) [compound 1197193]
Reply | 52 % UTC

Ask | Would you mind doing 1198371 (kA*dT*dT*dG*dT*d[5mC]*dT*d[5mC]*dA*dT*dG*k[5mC]*e[5mC]*kT*eT*kA; antisense) [compound 1198371] as well?
Reply | 66 % UTC

Ask | Consider next the substance 1197216 (kA*kA*kA*dG*dT*dG*dT*dA*dT*dG*dT*d[5mC]*dA*kG*kA*kA; antisense) [compound 1197216] in the same way.
Reply | 39 % UTC

* * *

# Test system: Yap1 mRNA
# PROCEDURE DETAILS: Antisense inhibition of human Yap1 in A-431 cells by cEt gapmers, single dose (Example 3, RTS36584)
# Assay type: cell-based
# MEASUREMENT PARAMETERS: Table 34; Yap1 mRNA as percent of untreated control; 3-10-3 cEt gapmers targeting SEQ ID NO: 1 and 2; single dose
Strand notation (5' to 3'): a small letter for the sugar, then the base; units joined by * are phosphorothioate-linked, units joined directly phosphodiester-linked; [ ] holds rarer units or linkages, { } end groups; capitals alone tell only the bases. k = constrained ethyl (cEt); [5mC] = 5-methylcytosine; d = 2'-deoxy (DNA)
Hi there, I'd appreciate the recorded YAP1 (% UTC) for every entry that follows.
Output spec: scalar in % UTC, unitless text.

Ask | Value lookup for YAP1 (% UTC); key = 1076436 (k[5mC]*kA*kT*dT*dA*d[5mC]*dT*dA*d[5mC]*dT*d[5mC]*dT*dG*kT*k[5mC]*k[5mC]; antisense) [compound 1076436]
Reply | 39

Ask | Query 1076468 (k[5mC]*kA*kT*dT*dA*d[5mC]*dT*dA*d[5mC]*dT*dA*dA*dG*kA*kG*kT; antisense) [compound 1076468] next
Reply | 91

Ask | Also 1075348 (antisense kT*k[5mC]*kA*d[5mC]*dA*dA*dA*dA*d[5mC]*d[5mC]*d[5mC]*dT*dA*k[5mC]*kA*k[5mC]) [compound 1075348] , if possible.
Reply | 96

Ask | And then 1074292 (antisense k[5mC]*kT*kG*dT*dT*dT*d[5mC]*dA*d[5mC]*dT*dG*dG*dA*kG*k[5mC]*kA) [compound 1074292] , what is it?
Reply | 10

Ask | Would you kindly repeat that for 1076052 (kG*k[5mC]*kA*dA*dT*dA*dA*dA*dG*d[5mC]*dT*dG*dA*kA*k[5mC]*kT; antisense) [compound 1076052] ?
Reply | 23

Ask | Record: 1074644 (antisense kA*kT*kT*dG*dA*dA*dG*dG*dG*d[5mC]*d[5mC]*dA*dA*kA*kA*kT) [compound 1074644]
Reply | 93

Ask | Field entry: 1076116 (kG*kA*kA*dA*dA*dT*dA*dG*d[5mC]*d[5mC]*d[5mC]*dA*dT*kT*kA*kG; antisense) [compound 1076116]
Reply | 25

Ask | Also check 1076500 (k[5mC]*kA*kA*dT*dT*dA*dA*dG*dA*dT*d[5mC]*dA*dA*k[5mC]*kA*kT; antisense) [compound 1076500]
Reply | 99

Ask | Next substance up: 1076564 (kT*kA*kA*dA*dG*dT*dA*dA*dT*dG*d[5mC]*dT*dA*k[5mC]*kA*kG; antisense) [compound 1076564]
Reply | 77

* * *

# Test system: Yap1 mRNA
# PROCEDURE DETAILS: Antisense inhibition of human Yap1 in SNU-449 cells by modified oligonucleotides, single dose (Example 5, RTS36584)
# Type: cell-based
# MEASUREMENT PARAMETERS: Table 49; Yap1 mRNA level relative to untreated control; modified oligonucleotides targeting SEQ ID NO.: 1 and 2
# Procedure: Modified oligonucleotides with additional chemistry modifications were designed to target a Yap1 nucleic acid and were tested for their effect on Yap1 mRNA level in SNU-449 cells. […] After a treatment period of approximately 48 hours, RNA was isolated from the cells and Yap1 mRNA levels were measured by quantitative real-time RTPCR. […] Yap1 mRNA levels were normalized to total RNA content, as measured by RIBOGREEN®. […]
Strand notation (5' to 3'): a small letter for the sugar, then the base; units joined by * are phosphorothioate-linked, units joined directly phosphodiester-linked; [ ] holds rarer units or linkages, { } end groups; capitals alone tell only the bases. e = 2'-O-(2-methoxyethyl) (MOE); k = constrained ethyl (cEt); [5mC] = 5-methylcytosine; d = 2'-deoxy (DNA)
I'd appreciate it if you could supply YAP1 (% UT) values for the items below.
Give the value in % UT but do not write % UT after it.

Ask | Data request, read-out YAP1 (% UT), for 1198360 (kA*kA*k[5mC]*dT*dT*dT*dA*dA*dA*dG*dT*dG*kT*eA*kT*eG; antisense) [Compound 1198360]
Reply | 74

Ask | Same again, this time with 1198581 (antisense kA*kG*kT*dG*d[5mC]*dT*dT*dT*dG*dG*dA*dA*kG*kA*kT*e[5mC]) [Compound 1198581]
Reply | 42

Ask | Again, but for 1198547 (antisense kG*kG*kA*dA*dA*dT*dT*dG*dT*d[5mC]*dT*d[5mC]*kA*kT*kG*e[5mC]) [Compound 1198547]
Reply | 27

Ask | Let us now turn to 1198579 (antisense kT*kG*k[5mC]*dT*dT*dT*dG*dG*dA*dA*dG*dA*kT*k[5mC]*kT*eG) [Compound 1198579]
Reply | 34

Ask | Same question, 1095566 (antisense CTGAGGTATAACTGGG; chemistry not fully specified) [Compound 1095566] this time
Reply | 47

Ask | Field entry: 1198367 (kG*kA*k[5mC]*dT*dA*dA*dG*dT*dA*dA*dG*dG*kT*eT*kT*e[5mC]; antisense) [Compound 1198367]
Reply | 58

Ask | Repeat with 1074461 (kG*kA*kA*dA*dT*dT*dG*dT*d[5mC]*dT*d[5mC]*dA*dT*kG*k[5mC]*k[5mC]) [Compound 1074461]
Reply | 10

Ask | Cool, now 1198549 (antisense kA*kT*kG*dG*dA*dA*dA*dT*dT*dG*dT*d[5mC]*kT*k[5mC]*kA*eT) [Compound 1198549]
Reply | 84

Ask | Also check 1198362 (kA*kG*kT*dA*dA*dG*dG*dT*dT*dT*d[5mC]*d[5mC]*k[5mC]*eA*kG*eA; antisense) [Compound 1198362]
Reply | 24

Ask | // same read-out, input: 1198369 (kT*kT*kA*dG*dA*d[5mC]*dT*dA*dA*dG*dT*dA*kA*eG*kG*eT; antisense) [Compound 1198369]
Reply | 51

Ask | Likewise for 1198337 (kT*k[5mC]*kT*dT*dA*dT*dA*dT*dG*dG*dT*dT*kT*eT*kG*eT; antisense) [Compound 1198337] ?
Reply | 26

Ask | Consider next the substance 1198574 (antisense kG*kG*kA*dA*dG*dA*dT*d[5mC]*dT*dG*dA*dA*kA*k[5mC]*kT*e[5mC]) [Compound 1198574] in the same way.
Reply | 37

Ask | Moving on to the next substance: 1198342 (kG*kA*k[5mC]*dA*dA*d[5mC]*dT*d[5mC]*dT*dT*dA*dT*kA*eT*kG*eG; antisense) [Compound 1198342]
Reply | 101
